- Target system: EcThsA (ThsA TM-macro effector), macro domain (Escherichia coli, UniProt A0A0H2V895, F250A/I219A/K249E/Q207E/R182E/R221E)
- Construct: gene c2400; EcThsA^Macro; residues 62 to 278
- Sequence (A0A0H2V895 62-278, stated change not applied): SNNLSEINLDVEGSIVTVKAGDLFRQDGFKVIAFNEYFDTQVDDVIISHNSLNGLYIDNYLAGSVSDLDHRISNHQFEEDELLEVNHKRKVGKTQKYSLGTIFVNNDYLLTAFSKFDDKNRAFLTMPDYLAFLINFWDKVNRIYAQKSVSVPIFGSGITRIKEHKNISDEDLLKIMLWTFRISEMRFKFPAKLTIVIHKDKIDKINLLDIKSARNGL
- Run description: ITC (~[…]); STD NMR
- Type: binding
Test readout: pKd
For clarity, pKd is expressed as the negative log10 of concentration in mol/L.

Problem: Need pKd of Nc1ncnc2c1ncn2[C@@H]1O[C@H](COP(=O)(O)OP(=O)(O)OC[C@H]2O[C@H](O)[C@H](O)[C@@H]2O)[C@@H](O)[C@H]1O , thanks.
Result: 5.34

Where do these numbers come from? They come from paper PMC11204291.
